Test system: HCC827 (human non-small cell lung cancer cells)
Test Name: MTT cancer cell growth inhibition
Type: cell-based
Protocol Conditions: Homo sapiens, HCC827, 72 h, MTT, 72 hours incubation, HCC827 cells; read-out: GI50 HCC827
Metric: GI50 (µM)
Answers are plain numbers, in µM.

Some solved cases for reference:
- Molecule: "C/C=C1\\NC(=O)c2cccc(n2)CNC(=O)C[C@@H](/C=C/CCSC(C)=O)OC(=O)[C@H](CCCCNC(=O)OCC2c3ccccc3-c3ccccc32)NC1=O [Compound 16]"
  System: "HCC827 (human non-small cell lung cancer cells)"
  GI50 / µM: 0.049
- Molecule: "C/C=C1\\NC(=O)c2ccc(F)c(n2)CNC(=O)C[C@@H](/C=C/CCS)OC(=O)[C@H](C)NC1=O [Compound 114]"
  System: "HCC827 (human non-small cell lung cancer cells)"
  GI50 / µM: 0.071
- Molecule: "C/C=C1\\NC(=O)c2nc(ccc2F)CNC(=O)C[C@@H](/C=C/CCSC=O)OC(=O)[C@H](C(C)C)NC1=O [Example 51]"
  System: "HCC827 (human non-small cell lung cancer cells)"
  GI50 / µM: 0.072
- Molecule: "C/C=C1\\NC(=O)c2nc(ccc2SCC)CNC(=O)C[C@@H](/C=C/CCSC(=O)CCCCCCC)OC(=O)[C@H](C(C)C)NC1=O [Compound 247]"
  System: "HCC827 (human non-small cell lung cancer cells)"
  GI50 / µM: 0.041
- Molecule: "C/C=C1\\NC(=O)c2cc(F)cc(n2)CNC(=O)C[C@@H](/C=C/CCSC(=O)CCCCCCC)OC(=O)[C@H](CC)NC1=O [Compound 55]"
  System: "HCC827 (human non-small cell lung cancer cells)"
  GI50 / µM: 0.081

Input: Could you tell me which GI50 is on file for C/C=C1\NC(=O)c2ccc(SC)c(n2)CNC(=O)C[C@@H](/C=C/CCSC(=O)CCCCCCC)OC(=O)[C@H](C)NC1=O [Compound 182] ?
Output: 0.023

###

For each entry below, report its GI50 value.
System: BGC-823 (human gastric cancer cells)
Test Name: MTT cancer cell growth inhibition
Assay type: cell-based
Protocol Conditions: Homo sapiens, BGC-823, 72 h, MTT, 72 hours; present invention; read-out: GI50 BGC823, a
Description: MTT assay principle is yellow MTT can penetrate membrane into the cell, succinic dehydrogenase of the mitochondria in living cells can make exogenous MTT reduction of insoluble in water of blue-violet acicular formazan for crystallization and deposition in the cell, crystallization can be dissolved dimethyl sulfoxide (DMSO) solution, detected its absorbance at 490 nm/570 nm wavelength by enzyme-linked immunosorbent assay, which can reflect the number of cells. […] e) 570 nm readings. […]
Answers are plain numbers, in nM.

- Compound: "CCCCCCCC(=O)SCC/C=C/[C@@H]1CC(=O)NCc2cccc(n2)C(=O)NC(CC)C(=O)N[C@@H](C(C)C)C(=O)O1 (some centres unmarked) [Compound 245]"
  Metric: "GI50"
  Assay Value: 770
- Compound: "C/C=C1\\NC(=O)c2nc(ccc2C)CNC(=O)C[C@@H](/C=C/CCSC(=O)CCCCCCC)OC(=O)[C@H](C(C)C)NC1=O [Compound 243]"
  Metric: "GI50"
  Assay Value: 860
- Compound: "C/C=C1\\NC(=O)c2cccc(n2)CNC(=O)C[C@@H](/C=C/CCSC(=O)CCCCCCC)OC(=O)[C@H](c2ccc(O)cc2)NC1=O [Compound 238]"
  Metric: "GI50"
  Assay Value: 140
- Compound: "C=C1NC(=O)c2cccc(n2)CNC(=O)C[C@@H](/C=C/CCSC(=O)CCCCCCC)OC(=O)[C@H](C(C)C)NC1=O [Compound 244]"
  Metric: "GI50"
  Assay Value: 390

Shifting focus to the compound that follows.
Input: Could you tell me which GI50 is on file for C/C=C1\NC(=O)c2cccc(n2)CNC(=O)C[C@@H](/C=C/CCSC(=O)CCCCCCC)OC(=O)[C@H](C(C)(C)C)NC1=O [Compound 237] ?
Output: 170

Numbers sourced from patent US10065990B2.
